- Assayed Target: T1, Ac-IEPD-AMC
- T1 chain: XIEPDX
For each record, write down the corresponding kcat/Km.
Write the answer as a number in M⁻¹ s⁻¹, unit excluded.

Form field: reported kcat/Km of rat granzyme B I99A (protein) IIGGHEAKPHSRPYMAYLQIMDEYSGSKKCGGFLIREDFVLTAAHCSGSKINVTLGAHNIKEQEKMQQIIPVVKIIPHPAYNSKTASNDIMLLKLKSKAKRSSAVKPLNLPRRNVKVKPGDVCYVAGWGKLGPMGKYSDTLQEVELTVQEDQKCESYLKNYFDKANEICAGDPKIKRASFRGDSGGPLVCKKVAAGIVSYGQNDGSTPRAFTKVSTFLSWIKKTMKKS
57

Form field: reported kcat/Km of rat granzyme B Y174A (protein) IIGGHEAKPHSRPYMAYLQIMDEYSGSKKCGGFLIREDFVLTAAHCSGSKINVTLGAHNIKEQEKMQQIIPVVKIIPHPAYNSKTISNDIMLLKLKSKAKRSSAVKPLNLPRRNVKVKPGDVCYVAGWGKLGPMGKYSDTLQEVELTVQEDQKCESYLKNAFDKANEICAGDPKIKRASFRGDSGGPLVCKKVAAGIVSYGQNDGSTPRAFTKVSTFLSWIKKTMKKS
470
